Test: NCI Yeast Anticancer Drug Screen. Data for the rad50 strain (AID 155);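 also: 0% = growth of vehicle-only cultures of the same strain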
Conditions: S. cerevisiae rad50 strain growth inhibition; at 50.0 µM (retest, dose inferred, filed as 5.0); hits give high values
Compounds without any hit were thinned out: in the full panel of roughly 79,000, 15% have a hit. Calls of active or inactive are those of the source. Rule as the data show it: active = growth inhibition above about 70%; inactive = the rest.
Please respond with reported growth inhibition for every item in the list.

Q: Return reported growth inhibition; argument: "O=C(CBr)OC1CCCCC1"
A: 97% (active)

Q: Return reported growth inhibition; argument: COC(=O)C1ON(c2ccccc2)C2c3ccccc3-c3ccccc3C12 (centres undefined)
A: 63% (inactive)

Q: Return reported growth inhibition; argument: O=[As]c1ccccc1O (centres undefined)
A: 96% (active)

Q: Return reported growth inhibition; argument: "[C-]#[O+].[C-]#[O+].[CH3][Sn]([CH3])[c]1ccccc1.[Fe+5].[c-]1[c-][c-][cH-][c-]1"
A: 82% (active)

Q: Return reported growth inhibition; argument: "CCOc1ccc(CCNC)c2c1ccc1ccc(OC)c(O)c12"
A: 97% (active)

Q: Return reported growth inhibition; argument: "CC(=O)O[C@H]1CC[C@@]2(C)C(=CC[C@@H]3[C@@H]2CC[C@]2(C)C(=O)[C@@H](CN4CC4)C[C@@H]32)C1"
A: 97% (active)

Q: Return reported growth inhibition; argument: CC(C)C1(NC(=O)C2CC3c4cccc5[nH]cc(c45)CC3N(C)C2)OC2(O)C3CCCN3C(=O)C(Cc3ccccc3)N2C1=O (centres undefined)
A: 94% (active)

Q: Return reported growth inhibition; argument: CO/C1=C\C(C)=C\C(C)C(O)C(C)C/C(C)=C/C=C/C(OC)C(C(C)C(O)C(C)C2(O)CC(O)C(C)C(C(C)C)O2)OC1=O (centres undefined)
A: 84% (active)

Q: Return reported growth inhibition; argument: COc1ccc([As]=[As]c2ccc(OC)cc2)cc1 (centres undefined)
A: 97% (active)

----------
Test: NCI Yeast Anticancer Drug Screen. Data for the sgs1 mgt1 strain (AID 161);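 also: 0% = growth of cultures given vehicle only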
Details: S. cerevisiae sgs1 mgt1 strain, at 50.0 µM, hits give high values
The panel holds about 79,000 compounds, 15% with a hit somewhere; the sample as a whole holds those more often.
So basically: growth inhibition at 10% or higher? That is YES. Lower than 10%? That is NO.

Q: Could you tell me if the measured growth inhibition of "NC(N)=Nc1c(N)ncnc1N" reaches 10% or more?
A: NO

Q: Could you tell me if the measured growth inhibition of "CC1(C)N=C(N)N=C(N)N1c1cccc(CCC(=O)Nc2ccc[n+](Cc3ccc(S(=O)(=O)F)cc3)c2)c1" reaches 10% or more?
A: YES

Q: Could you tell me if the measured growth inhibition of "CCCCCCCCOC(=O)c1ccccc1C(=O)OCCCCCCCC" reaches 10% or more?
A: YES

Q: Could you tell me if the measured growth inhibition of "NC1(P(=O)(O)O)CCCCC1" reaches 10% or more?
A: NO

Q: Could you tell me if the measured growth inhibition of "O.O.O=Cc1ccccc1O.O=Cc1ccccc1O.[Co]" reaches 10% or more?
A: YES

Q: Could you tell me if the measured growth inhibition of "S=P(Nc1ccc(Cl)cc1)(Nc1ccc(Cl)cc1)c1ccccc1" reaches 10% or more?
A: YES

----------
Assay: NCI Yeast Anticancer Drug Screen. Data for the mec2-1 strain (AID 157)
Details: S. cerevisiae mec2-1 strain, at 50.0 µM
Compounds without any hit were thinned out: in the full panel of roughly 79,000, 15% have a hit. Active and inactive are the calls of the source. Rule as the data show it: active = growth inhibition above about 70%; inactive = the rest.
Could you please pick one outcome from this set? y = active, n = inactive

Q: Which outcome did this test record for the compound CC(COC(=O)NCc1ccccc1)OC(N)=O (configuration not stated) ?
A: n

Q: Which outcome did this test record for the compound "CC(C)CCC(=O)O[C@H]1CC[C@@]2(C)C(=CC[C@@H]3[C@@H]2CC[C@]2(C)C(=O)CC[C@@H]32)C1" ?
A: n

Q: Which outcome did this test record for the compound "CC(C)(C)c1ccc(OP(=O)(Oc2ccccc2)Oc2ccccc2)cc1" ?
A: n

Q: Which outcome did this test record for the compound COc1cc(C2c3cc4c(cc3[C@@H](Nc3ccc([N+](=O)[O-])cc3)C3COC(=O)[C@H]23)OCO4)cc(OC)c1O (some centres not stated) ?
A: y

Q: Which outcome did this test record for the compound "Nc1nc(N)c(-c2ccc(Cl)c(Cl)c2)c(CCc2ccc(CNC(=O)c3cccc(S(=O)(=O)F)c3)cc2)n1" ?
A: n

Q: Which outcome did this test record for the compound "CO[As](OC)c1ccc(N=Nc2ccc(N(C)C)cc2)cc1" ?
A: y

Q: Which outcome did this test record for the compound OC(CN(CCCl)CCCl)C(O)C(O)C(O)CN(CCCl)CCCl (configuration not stated) ?
A: n

Q: Which outcome did this test record for the compound O=C1C=CC(=O)C(Br)C1Br (configuration not stated) ?
A: n

Q: Which outcome did this test record for the compound CC1(CCl)COP(=O)(NN)OC1 (configuration not stated) ?
A: n

Q: Which outcome did this test record for the compound C1CC2OC2CC1C1CO1 (configuration not stated) ?
A: n

Q: Which outcome did this test record for the compound CC1Oc2cc3c(-c4c(O)cc(O)c5c(O)c6c(cc45)OC(C)C(C)C6=O)c(O)cc(O)c3c(O)c2C(=O)C1C (configuration not stated) ?
A: y

Q: Which outcome did this test record for the compound "CN(C)C(=O)C(Cl)Cl" ?
A: n

Q: Which outcome did this test record for the compound "CS(=O)(=O)Cl" ?
A: n

Q: Which outcome did this test record for the compound "O=P(O)(Oc1ccccc1)Oc1ccccc1" ?
A: n

Q: Which outcome did this test record for the compound NC1=C(c2nc(-c3ccccc3)cs2)C(c2ccco2)c2c(c3ccccc3oc2=O)O1 (configuration not stated) ?
A: n

Q: Which outcome did this test record for the compound "Cc1ccc(O)c(CN2CCN(Cc3cc(C)ccc3O)CC2)c1" ?
A: n

Q: Which outcome did this test record for the compound "CC[C@]12C=CCN3CC[C@@]4(c5ccc(OC)cc5N(C)[C@H]4[C@@](O)(C(=O)OC)[C@@H]1OC(C)=O)[C@@H]32" ?
A: n

Q: Which outcome did this test record for the compound "CN(C)c1ccc(N=Nc2cccc(C(=O)[O-])c2)cc1.CN(C)c1ccc(N=Nc2cccc(C(=O)[O-])c2)cc1.NC1CCCCC1N.O=[N+]([O-])O.[Pt+4]" ?
A: y

Q: Which outcome did this test record for the compound "CCCCC1(CCS)C(=O)NC(=O)NC1=O" ?
A: n

Q: Which outcome did this test record for the compound CC(C)(C)OC(=O)NCC(=O)NC(CSC(c1ccccc1)c1ccccc1)C(=O)NCC(=O)O (configuration not stated) ?
A: n

Q: Which outcome did this test record for the compound CC1=C(CC/C(C)=C/CCC2(C)CCC([C@H](C)C(=O)O)OO2)C(C)(C)CCC1 (some centres not stated) (tested in a mixture with another compound) ?
A: y

Q: Which outcome did this test record for the compound "CP(C)C.[Ag][I]" ?
A: n

----------
Please respond with reported growth inhibition for every item in the list.
Assay: NCI Yeast Anticancer Drug Screen. Data for the sgs1 mgt1 strain (AID 161);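 also: 0% = growth of cultures given vehicle only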
Conditions: S. cerevisiae sgs1 mgt1 strain, at 50.0 µM, hits give high values
The panel holds about 79,000 compounds, 15% with a hit somewhere; the sample as a whole holds those more often.
Please give a number only; it is taken to be in %.

Q: Return reported growth inhibition; argument: CC1CCC(OC(=O)CCl)CC1 (stereo unspecified)
A: 13.3

Q: Return reported growth inhibition; argument: "O=C([O-])Cc1ccccc1.O=[N+]([O-])O.[Co+3].[NH2-].[NH2-].[NH2-].[NH2-].[NH2-]"
A: 21.3

Q: Return reported growth inhibition; argument: "O=C([O-])C[OH+]c1ccc(Cl)cc1Cl.O=C([O-])C[OH+]c1ccc(Cl)cc1Cl.[Ni+2]"
A: 18.9

Q: Return reported growth inhibition; argument: CC(Cl)C(=O)OC(C)(C)Cl (stereo unspecified)
A: 11.7

Q: Return reported growth inhibition; argument: "O=C(O)CC(=O)O.[Co+2].[NH-]CC(=O)O.[NH-]CC(=O)O"
A: 10.2

Q: Return reported growth inhibition; argument: CO[C@@]12[C@@H]3N[C@@H]3CN1C1=C(C(=O)C(NCC3CCCO3)=C(C)C1=O)[C@@H]2COC(N)=O (stereo partly specified)
A: 6.25

Q: Return reported growth inhibition; argument: "N.N.N.N.O=C([O-])C(=O)O.O=C([O-])C(=O)[O-].[Co+3]"
A: -10.6

Q: Return reported growth inhibition; argument: "O=C1NC(=O)C(CCC(=O)c2ccc3ccccc3c2)C(=O)N1"
A: -57.6

Q: Return reported growth inhibition; argument: "CCCCCOP(=O)(OCCCCC)C(=O)Nc1ccc([N+](=O)[O-])cc1"
A: -5.25

Q: Return reported growth inhibition; argument: COP(=O)(OC)C(N)CCSC (stereo unspecified)
A: -61.8

Q: Return reported growth inhibition; argument: "OCCCCO"
A: -12
